B1: tRNA (parent)
chain: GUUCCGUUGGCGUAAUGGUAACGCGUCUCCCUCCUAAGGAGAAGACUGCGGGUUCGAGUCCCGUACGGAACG

- Variants of: B1
- Measurement Protocol: yeast fitness relative to wild type (ratio to wild type); higher = fitter; tRNA-Arg(CCU), competitive growth, 37 C, YPD
Variants at the floor of the assay were thinned out.
Endpoint Name: yeast fitness

variant_description="C29U G38C G39A A65G C66A G67A" qualifier_symbol=≤ value_measured=0.5
variant_description="U8G A43C G51A" qualifier_symbol=≤ value_measured=0.5
variant_description="C31U U53A U59A" qualifier_symbol=≤ value_measured=0.5
variant_description="C4A A14C A70G" qualifier_symbol=≤ value_measured=0.5
variant_description="C5U G25C A42U A69U" qualifier_symbol=≤ value_measured=0.5
variant_description="U35A A65G" qualifier_symbol== value_measured=0.751
variant_description="U13A A14C U19C U32A G63C" qualifier_symbol== value_measured=0.64
variant_description="G18C A21G G56A" qualifier_symbol== value_measured=0.575
variant_description="C22U C24U C33U A40U" qualifier_symbol=≤ value_measured=0.5
variant_description="A37U A40U" qualifier_symbol== value_measured=0.72
variant_description="U19C C29U" qualifier_symbol== value_measured=0.948
variant_description="U16A C34U" qualifier_symbol== value_measured=0.663
